Numbers sourced from patent US7807711B2.

- Tested target: recombinant human CB1 (Homo sapiens)
- Construct: expressed in transfected cells; host or cells: Sf9 cells
- Protocol summary: biochemical
- Assay type: binding
- Setup conditions: purified components; Sf9 cells; read-out: Kd CB1
pKd: −log10 of the molar value.
Measured quantity: pKd

Task item: Return pKd (reported value) for this compound: CCCCCc1cc2c(c(O)c1C(=O)O)C1C=C(C)CCC1C(C)(C)O2 (stereo not shown) [THC-A, Δ^9-tetrahydrocannabinolic acid]
Reply: < 6.00

----------
- Tested target: recombinant human CB1 (Homo sapiens, UniProt P21554)
- Construct: expressed in transfected cells; host or cells: Sf9 cells
- Sequence (P21554 whole entry): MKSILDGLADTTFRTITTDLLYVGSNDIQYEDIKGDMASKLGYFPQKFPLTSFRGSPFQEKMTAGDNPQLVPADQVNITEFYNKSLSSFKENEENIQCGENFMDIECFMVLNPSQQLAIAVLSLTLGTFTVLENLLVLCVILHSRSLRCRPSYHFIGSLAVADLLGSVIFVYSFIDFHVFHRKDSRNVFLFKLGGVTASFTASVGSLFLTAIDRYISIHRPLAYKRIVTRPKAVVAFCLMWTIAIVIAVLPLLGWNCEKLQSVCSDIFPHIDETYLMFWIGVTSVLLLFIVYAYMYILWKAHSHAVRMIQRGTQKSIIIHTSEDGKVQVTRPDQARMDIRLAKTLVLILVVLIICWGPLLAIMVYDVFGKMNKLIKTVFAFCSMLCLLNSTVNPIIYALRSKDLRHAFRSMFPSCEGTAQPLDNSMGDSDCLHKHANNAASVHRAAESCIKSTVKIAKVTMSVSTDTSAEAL
- Protocol summary: biochemical
- Assay type: binding
Measured quantity: Kd
Please provide the amount together with its unit, number first.

Task item: # lookup: recombinant human CB1 (Homo sapiens, UniProt P21554) Kd, key = CCCCCc1cc(O)c2c(c1)OC(C)(C)c1ccc(C)cc1-2 [CBN*, cannabinol, reference compound]
Reply: 36 nM
